Below are pKi values measured for 5-hydroxytryptamine receptor 7 (Homo sapiens).
pKi field: float, defined as -log10 of concentration (mol/L).

Example cases with answers are listed next.
COc1ccccc1N1CCN(CCCCC2NC(C3CCCCC3)=NNC2=O)CC1 (stereo not given)    7.70
O=C1NN=C(c2ccccc2)NC1CCCCN1CCN(c2cccc(Cl)c2Cl)CC1 (stereo not given)    7.80
O=C1NN=C(c2ccccc2Cl)NC1CCCCN1CCN(c2ccccc2F)CC1 (stereo not given)    7.04
O=C1NN=C(c2ccccc2)NC1CCCCN1CCN(c2ccc(Cl)cc2)CC1 (stereo not given)    7.10
O=C1NN=C(C2CCCCC2)NC1CCCCN1CCN(c2cccc(Cl)c2Cl)CC1 (stereo not given)    8.30

Q: I would be grateful if you could share the reported pKi for O=C1NN=C(c2ccccc2)NC1CCCCN1CCN(c2ccccc2F)CC1 (stereo not given) .
A: 7.00

Q: For COc1ccccc1N1CCN(CCCCC2NC(c3ccccc3)=NNC2=O)CC1 (stereo not given) then?
A: 7.57

Q: For CSc1ccccc1N1CCN(CCCCC2NC(c3ccccc3)=NNC2=O)CC1 (stereo not given) then?
A: 7.77

Q: For CSc1ccccc1N1CCN(CCCCC2NC(C3CCCCC3)=NNC2=O)CC1 (stereo not given) then?
A: 8.22

Q: For O=C1NN=C(c2ccccc2)NC1CCCCN1CCN(c2ccccc2)CC1 (stereo not given) then?
A: 7.02

----------
TARGET OR TEST SYSTEM: 5-hydroxytryptamine receptor 1A (Homo sapiens)
Sequence (P08908 whole entry): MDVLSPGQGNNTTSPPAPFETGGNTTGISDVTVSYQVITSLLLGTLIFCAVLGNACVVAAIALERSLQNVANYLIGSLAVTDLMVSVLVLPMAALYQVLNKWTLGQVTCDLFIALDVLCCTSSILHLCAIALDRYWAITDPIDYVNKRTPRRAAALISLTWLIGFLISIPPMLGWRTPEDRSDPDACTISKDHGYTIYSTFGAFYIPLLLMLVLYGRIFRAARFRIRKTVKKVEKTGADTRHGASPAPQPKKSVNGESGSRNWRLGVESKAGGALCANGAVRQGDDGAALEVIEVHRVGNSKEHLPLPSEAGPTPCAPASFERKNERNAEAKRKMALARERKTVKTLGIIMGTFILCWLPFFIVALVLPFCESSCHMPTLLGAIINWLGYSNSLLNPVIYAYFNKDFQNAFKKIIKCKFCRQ
Quick reference: pKi of the listed items.
pKi field: float, defined as -log10 of concentration (mol/L).

Example cases with answers are listed next.
O=C1NN=C(c2ccccc2)NC1CCCCN1CCN(c2ccccc2F)CC1 (stereo not given)    6.92
CSc1ccccc1N1CCN(CCCCC2NC(c3ccccc3)=NNC2=O)CC1 (stereo not given)    7.55
COc1ccccc1N1CCN(CCCCC2NC(c3ccccc3)=NNC2=O)CC1 (stereo not given)    8.05

Moving on to the next compound.
Q: I would be grateful if you could share the reported pKi for O=C1NN=C(C2CCCCC2)NC1CCCCN1CCN(c2cccc(Cl)c2Cl)CC1 (stereo not given) .
A: 7.49

----------
TARGET OR TEST SYSTEM: 5-hydroxytryptamine receptor 1A (Homo sapiens)
Sequence (P08908 whole entry): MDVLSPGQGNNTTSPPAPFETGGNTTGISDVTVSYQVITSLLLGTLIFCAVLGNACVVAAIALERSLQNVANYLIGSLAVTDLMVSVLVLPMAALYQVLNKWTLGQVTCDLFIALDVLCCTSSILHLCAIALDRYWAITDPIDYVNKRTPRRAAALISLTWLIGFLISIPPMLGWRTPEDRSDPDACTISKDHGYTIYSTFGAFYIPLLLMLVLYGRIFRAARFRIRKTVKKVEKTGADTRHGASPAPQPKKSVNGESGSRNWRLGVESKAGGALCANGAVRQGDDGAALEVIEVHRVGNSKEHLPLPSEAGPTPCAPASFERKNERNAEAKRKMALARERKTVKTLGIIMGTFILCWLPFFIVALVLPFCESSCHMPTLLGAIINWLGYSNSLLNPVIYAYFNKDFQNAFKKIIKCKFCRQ
Threshold 70 nM. Ki below it: condition met. Ki at it or above: condition not met.

CSc1ccccc1N1CCN(CCCCC2NC(C3CCCCC3)=NNC2=O)CC1 (stereo unspecified)    condition met
O=C1NN=C(c2ccccc2)NC1CCCCN1CCN(c2ccccc2)CC1 (stereo unspecified)    condition not met
COc1ccccc1N1CCN(CCCCC2NC(C3CCCCC3)=NNC2=O)CC1 (stereo unspecified)    condition met
O=C1NN=C(c2ccccc2Cl)NC1CCCCN1CCN(c2ccccc2F)CC1 (stereo unspecified)    condition met

Turning now to a further compound:
Q: Problem: For the compound O=C1NN=C(c2ccccc2)NC1CCCCN1CCN(c2ccc(Cl)cc2)CC1 (stereo unspecified) , is Ki under 70 nM?
A: condition not met

src = BindingDB's records for doi:10.1111/cbdd.12539
